Ref: the supplement of paper PMC5998384

System: HeLa Kyoto
Assay: melting temperature (median over replicates), in situ; higher = more thermally stable
Details: cell cycle stage: mitosis
recorded metric: melting temperature (°C)
Give bare numbers, in °C.

Q: Tell us which melting temperature value is on record for MSERKVLNKYYPPDFDPSKIPKLKLPKDRQYVVRLMAPFNMRCKTCGEYIYKGKKFNARKETVQNEVYLGLPIFRFYIKCTRCLAEITFKTDPENTDYTMEHGATRNFQAEKLLEEEEKRVQKEREDEELNNPMKVLENRTKDSKLEMEVLENLQELKDLNQRQAHVDFEAMLRQHRLSEEERRRQQQEEDEQETAALLEEARKRRLLEDSDSEDEAAPSPLQPALRPNPTAILDEAPKPKRKVEVWEQSVGSLGSRPPLSRLVVVKKAKADPDCSNGQPQAAPTPGAPQNRKEANPTPLTPGASSLSQLGAYLDSDDSNGSN [CCDC94]
Ans: 52.3

* * *

System: HeLa Kyoto
Test: solubility in G1/S (NP-40 vs SDS abundance) (log2 ratio); higher = more soluble
Conditions: cell cycle stage: G1/S
Hi there, I'd appreciate the recorded solubility in G1/S (log2) for every entry that follows.
One number for each entry.

Q: // fetch solubility in G1/S (log2) given entry MAEEVSTLMKATVLMRQPGRVQEIVGALRKGGGDRLQVISDFDMTLSRFAYNGKRCPSSYNILDNSKIISEECRKELTALLHHYYPIEIDPHRTVKEKLPHMVEWWTKAHNLLCQQKIQKFQIAQVVRESNAMLREGYKTFFNTLYHNNIPLFIFSAGIGDILEEIIRQMKVFHPNIHIVSNYMDFNEDGFLQGFKGQLIHTYNKNSSACENSGYFQQLEGKTNVILLGDSIGDLTMADGVPGVQNILKIGFLNDKVEERRERYMDSYDIVLEKDETLDVVNGLLQHILCQGVQLEMQGP [NT5C3B]
Ans: 0.00588

Q: Check the records and state solubility in G1/S (log2) for MPAPAATYERVVYKNPSEYHYMKVCLEFQDCGVGLNAAQFKQLLISAVKDLFGEVDAALPLDILTYEEKTLSAILRICSSGLVKLWSSLTLLGSYKGKKCAFRVIQVSPFLLALSGNSRELVLD [RPP14]
Ans: -0.294

Q: Check the records and state solubility in G1/S (log2) for MGCDGGTIPKRHELVKGPKKVEKVDKDAELVAQWNYCTLSQEILRRPIVACELGRLYNKDAVIEFLLDKSAEKALGKAASHIKSIKNVTELKLSDNPAWEGDKGNTKGDKHDDLQRARFICPVVGLEMNGRHRFCFLRCCGCVFSERALKEIKAEVCHTCGAAFQEDDVIMLNGTKEDVDVLKTRMEERRLRAKLEKKTKKPKAAESVSKPDVSEEAPGPSKVKTGKPEEASLDSREKKTNLAPKSTAMNESSSGKAGKPPCGATKRSIADSEESEAYKSLFTTHSSAKRSKEESAHWVTHTSYCF [RTFDC1]
Ans: 0.0863

Provide each entry's solubility in G1/S (log2) from the list below.
1. MAARVLRARGAAWAGGLLQRAAPCSLLPRLRTWTSSSNRSREDSWLKSLFVRKVDPRKDAHSNLLAKKETSNLYKLQFHNVKPECLEAYNKICQEVLPKIHEDKHYPCTLVGTWNTWYGEQDQAVHLWRYEGGYPALTEVMNKLRENKEFLEFRKARSDMLLSRKNQLLLEFSFWNEPVPRSGPNIYELRSYQLRPGTMIEWGNYWARAIRFRQDGNEAVGGFFSQIGQLYMVHHLWAYRDLQTREDIRNAAWHKHGWEELVYYTVPLIQEMESRIMIPLKTSPLQ [GBAS]
2. MTQDRPLLAVQEALKKCFPVVEEQQGLWQSALRDCQPLLSSLSNLAEQLQAAQNLRFEDVPALRAFPDLKERLRRKQLVAGDIVLDKLGERLAILLKVRDMVSSHVERVFQIYEQHADTVGIDAVLQPSAVSPSVADMLEWLQDIERHYRKSYLKRKYLLSSIQWGDLANIQALPKAWDRISKDEHQDLVQDILLNVSFFLEE [C1ORF109]
3. MAPVRRSAKWRPGGIEARGEGVSTVGYRNKNVRQKTWRPNHPQAFVGSVREGQGFAFRRKLKIQQSYKKLLRKEKKAQTSLESQFTDRYPDNLKHLYLAEEERHRKQARKVDHPLSEQVHQPLLEEQCSIDEPLFEDQCSFDQPQPEEQCIKTVNSFTIPKKNKKKTSNQKAQEEYEQIQAKRAAKKQEFERRKQEREEAQRQYKKKKMEVFKILNKKTKKGQPNLNVQMEYLLQKIQEKC [CCDC59]
4. MSELEQLRQEAEQLRNQIQDARKACNDATLVQITSNMDSVGRIQMRTRRTLRGHLAKIYAMHWGYDSRLLVSASQDGKLIIWDSYTTNKMHAIPLRSSWVMTCAYAPSGNYVACGGLDNICSIYNLKTREGNVRVSRELPGHTGYLSCCRFLDDSQIVTSSGDTTCALWDIETAQQTTTFTGHSGDVMSLSLSPDMRTFVSGACDASSKLWDIRDGMCRQSFTGHVSDINAVSFFPNGYAFATGSDDATCRLFDLRADQELLLYSHDNIICGITSVAFSKSGRLLLAGYDDFNCNVWDTLKGDRAGVLAGHDNRVSCLGVTDDGMAVATGSWDSFLRIWN [GNB4]
5. MSQAVQTNGTQPLSKTWELSLYELQRTPQEAITDGLEIVVSPRSLHSELMCPICLDMLKNTMTTKECLHRFCADCIITALRSGNKECPTCRKKLVSKRSLRPDPNFDALISKIYPSRDEYEAHQERVLARINKHNNQQALSHSIEEGLKIQAMNRLQRGKKQQIENGSGAEDNGDSSHCSNASTHSNQEAGPSNKRTKTSDDSGLELDNNNAAMAIDPVMDGASEIELVFRPHPTLMEKDDSAQTRYIKTSGNATVDHLSKYLAVRLALEELRSKGESNQMNLDTASEKQYTIYIATASGQFTVLNGSFSLELVSEKYWKVNKPMELYYAPTKEHK [RNF2]
6. MDLFGDLPEPERSPRPAAGKEAQKGPLLFDDLPPASSTDSGSGGPLLFDDLPPASSGDSGSLATSISQMVKTEGKGAKRKTSEEEKNGSEELVEKKVCKASSVIFGLKGYVAERKGEREEMQDAHVILNDITEECRPPSSLITRVSYFAVFDGHGGIRASKFAAQNLHQNLIRKFPKGDVISVEKTVKRCLLDTFKHTDEEFLKQASSQKPAWKDGSTATCVLAVDNILYIANLGDSRAILCRYNEESQKHAALSLSKEHNPTQYEERMRIQKAGGNVRDGRVLGVLEVSRSIGDGQYKRCGVTSVPDIRRCQLTPNDRFILLACDGLFKVFTPEEAVNFILSCLEDEKIQTREGKSAADARYEAACNRLANKAVQRGSADNVTVMVVRIGH [ILKAP]
7. MSAFDTNPFADPVDVNPFQDPSVTQLTNAPQGGLAEFNPFSETNAATTVPVTQLPGSSQPAVLQPSVEPTQPTPQAVVSAAQAGLLRQQEELDRKAAELERKERELQNTVANLHVRQNNWPPLPSWCPVKPCFYQDFSTEIPADYQRICKMLYYLWMLHSVTLFLNLLACLAWFSGNSSKGVDFGLSILWFLIFTPCAFLCWYRPIYKAFRSDNSFSFFVFFFVFFCQIGIYIIQLVGIPGLGDSGWIAALSTLDNHSLAISVIMMVVAGFFTLCAVLSVFLLQRVHSLYRRTGASFQQAQEEFSQGIFSSRTFHRAASSAAQGAFQGN [SCAMP2]

Ans:
1: 0.0162; 2: 0.0701; 3: -0.512; 4: -0.287; 5: -0.307; 6: 0.239; 7: 0.177

* * *

Tested on: HeLa Kyoto
Experiment: melting temperature (median over replicates), in situ; higher = more thermally stable
Conditions: cell cycle stage: G1/S
recorded metric: melting temperature (°C)
Answers are plain numbers, in °C.

Below: 2 sequences and their reported melting temperature.
Q: # return recorded melting temperature for input MPNWGGGKKCGVCQKTVYFAEEVQCEGNSFHKSCFLCMVCKKNLDSTTVAVHGEEIYCKSCYGKKYGPKGYGYGQGAGTLSTDKGESLGIKHEEAPGHRPTTNPNASKFAQKIGGSERCPRCSQAVYAAEKVIGAGKSWHKACFRCAKCGKGLESTTLADKDGEIYCKGCYAKNFGPKGFGFGQGAGALVHSE [CSRP1]
Ans: 60.2

Q: Identify the reported melting temperature for the following entry. MANEVIKCKAAVAWEAGKPLSIEEIEVAPPKAHEVRIKIIATAVCHTDAYTLSGADPEGCFPVILGHEGAGIVESVGEGVTKLKAGDTVIPLYIPQCGECKFCLNPKTNLCQKIRVTQGKGLMPDGTSRFTCKGKTILHYMGTSTFSEYTVVADISVAKIDPLAPLDKVCLLGCGISTGYGAAVNTAKLEPGSVCAVFGLGGVGLAVIMGCKVAGASRIIGVDINKDKFARAKEFGATECINPQDFSKPIQEVLIEMTDGGVDYSFECIGNVKVMRAALEACHKGWGVSVVVGVAASGEEIATRPFQLVTGRTWKGTAFGGWKSVESVPKLVSEYMSKKIKVDEFVTHNLSFDEINKAFELMHSGKSIRTVVKI [ADH5]
Ans: 56.8

New cases:
Q: Query melting temperature for MCGNTMSVPLLTDAATVSGAERETAAVIFLHGLGDTGHSWADALSTIRLPHVKYICPHAPRIPVTLNMKMVMPSWFDLMGLSPDAPEDEAGIKKAAENIKALIEHEMKNGIPANRIVLGGFSQGGALSLYTALTCPHPLAGIVALSCWLPLHRAFPQAANGSAKDLAILQCHGELDPMVPVRFGALTAEKLRSVVTPARVQFKTYPGVMHSSCPQEMAAVKEFLEKLLPPV [LYPLA2]
Ans: 53.3
